Entries with reported IC50 on Prostaglandin G/H synthase 1 (Ovis aries, UniProt P05979)
Sequence (P05979 whole entry): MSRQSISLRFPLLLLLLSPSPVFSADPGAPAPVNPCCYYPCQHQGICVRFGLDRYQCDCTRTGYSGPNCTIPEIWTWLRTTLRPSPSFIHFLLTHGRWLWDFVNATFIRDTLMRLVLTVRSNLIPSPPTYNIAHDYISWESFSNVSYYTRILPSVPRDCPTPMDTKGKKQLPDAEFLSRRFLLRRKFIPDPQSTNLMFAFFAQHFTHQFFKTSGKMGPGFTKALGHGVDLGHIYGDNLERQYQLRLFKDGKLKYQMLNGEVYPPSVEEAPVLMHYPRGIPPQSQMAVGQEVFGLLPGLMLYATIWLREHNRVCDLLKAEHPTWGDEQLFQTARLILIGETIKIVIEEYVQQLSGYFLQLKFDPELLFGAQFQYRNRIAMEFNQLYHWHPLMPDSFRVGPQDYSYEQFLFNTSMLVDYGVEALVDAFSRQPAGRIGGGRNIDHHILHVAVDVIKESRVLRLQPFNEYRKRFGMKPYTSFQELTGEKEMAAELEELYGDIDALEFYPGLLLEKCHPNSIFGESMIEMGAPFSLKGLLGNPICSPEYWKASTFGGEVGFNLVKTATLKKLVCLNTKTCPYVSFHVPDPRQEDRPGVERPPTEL
property label: IC50

[[record]]
molecule = "COc1ccc2c(c1)c(CC(=O)OCCN(C)/[N+]([O-])=N/OCOC(C)=O)c(C)n2C(=O)c1ccc(Cl)cc1"
value_reported = "> 100 µM"

[[record]]
molecule = "CC(=O)OCO/N=[N+](\\[O-])N(C)CCOC(=O)C(C)c1ccc(CC(C)C)cc1 (stereo not drawn)"
value_reported = "> 100 µM"

[[record]]
molecule = "CC(=O)OCO/N=[N+](\\[O-])N(C)CCOC(=O)c1ccccc1OC(C)=O"
value_reported = "> 100 µM"

